# MEASURED_ON: T1, D-TrkA (human, all residues D-amino acids (glycine achiral); biotin on the N-terminus; C-terminal amide)
# T1 construct: also called mirror image of the D5 domain of human TrkA
# T1 chain: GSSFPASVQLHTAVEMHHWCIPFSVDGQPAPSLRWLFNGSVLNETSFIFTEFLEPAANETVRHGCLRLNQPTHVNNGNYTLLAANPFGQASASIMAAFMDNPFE
# ASSAY_OVERVIEW: BLI; Octet RED96e; biotinylated target immobilised on streptavidin biosensors, binder in solution; PBS pH 7.4 with 0.02% TWEEN; 25 °C; global fit
# ASSAY_CONDITIONS: both partners purified
TEST_READOUT: pKd
Remember, pKd is on a log scale: it is -log10 of the molar concentration.

Quick one: pKd for L-57445_(D-TrkA) (designed binder, source: E. coli Lemo21(DE3), purified (Ni Sepharose, SEC)) STEELVEELLELARKDPQEARKLVEEIVKELGLSPERRFELQLAIVLAQRDPELARRILERALNH ? 6.82
